B1: library; a variant is named by its letters at N, in order (parent)
chain: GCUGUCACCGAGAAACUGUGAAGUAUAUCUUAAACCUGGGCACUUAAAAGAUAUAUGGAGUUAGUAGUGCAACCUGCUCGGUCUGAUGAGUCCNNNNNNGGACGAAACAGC

Variants of: B1
Assay: normalized RNA/DNA level with ligand (relative to sTRSVctl = 100) (log10 (% of sTRSVctl)); HEK293T; ligand: cyclic di-GMP (c-di-GMP-II aptamer); ligand concentration (+) RNA-Seq: 1 mM; higher = less ribozyme self-cleavage, higher mRNA level
Conditions: reporter: mCherry (pCS4076), ligand present: yes
Endpoint: normalized RNA/DNA level with ligand (log10)
Please respond with just the number, no unit label.

As a guide, the following entries are already answered.
> print(dat)
   variant.description  measured.value
1               GGCCCC               2
2               CGGUUU            1.75

Request: Give the reported value of normalized RNA/DNA level with ligand (log10) for this record: AAGGUA
Response: 1.57

Request: For the variant GUUGAA , report normalized RNA/DNA level with ligand (log10).
Response: 1.65

Request: Name the recorded normalized RNA/DNA level with ligand (log10) of the item GAAAUA in your answer.
Response: 1.65

Request: Report measured normalized RNA/DNA level with ligand (log10); entry is AGAAUG
Response: 1.68

Request: Return normalized RNA/DNA level with ligand (log10) (reported value) for this variant: GUCAUA
Response: 1.76
